These entries and their values trace back to the supplement of paper PMC9170038.

Test system: MS2 coat protein
method.summary: apparent KD of MS2 coat protein; designed switch direction (-1 OFF switch, 1 ON switch): 1; higher = weaker reporter binding
condition: Eterna round: R95; input ligand: FMN 200 uM
value.type: apparent KD of MS2 coat protein

1. AUUAUACAUGAGGAUCACCCAUGUCAAUGUAGUCGAGGAUAUGGGCAGCUGUGAGGCGUACUAGAAGGCGAAGAGA [Mat - Same State 1 - Mod of JL - D9] (puzzle: Same State 1) :: 59.9 nM
2. UCUUGGUUUUUGCUCGUUUUUUGUGUUGAACAUGAGGAUCACCCAUGUAUUGUACGGUCCGGUUUGAUAGUGGUCCA [JMF 45] (puzzle: Sensor for hsa-mir-208a) :: 111 nM
3. UCUUGGUUUUUGCUCGUUUUUUGUGUUGAACAUGAGGAUCACCCAUGUAUUGUACGGUCCAGUUUGAUAAUGGUCCG [JMF 34] (puzzle: Sensor for hsa-mir-208a) :: 25.6 nM
4. GUAGAUAUAGAGGAGGAUAUUCGAUGAGGAACAUGAGGAUCACCCAUGUAAGAGAGAGAUGAUGAGAAGAAGGCUUAGAGGGAUG [Altered State 2-4 - Jieux - Same State 2] (puzzle: Same State 2) :: 25.1 nM
5. UCUUGGUUUUUGCUCGUUUUUUGUGUUGAACAUGAGGAUCACCCAUGUAUUGUACAGUCCAGUUUAAUAAUGGUCCG [JMF 55] (puzzle: Sensor for hsa-mir-208a) :: 36.9 nM
6. GUAUAACAUGAGGAUCACCCAUGUCAACAAAGUCGAGGAUAUGGGCAUAUAAUAUAUGAACCAGAAGGCGAAUAUG [Mat - Same State 1 - Mod of UCT - D36] (puzzle: Same State 1) :: 34.2 nM
7. UUGCAGUCAGGUGAGGAUAUCAUGAAUUAAACAUGAGGAUCACCCAUGUGCUGCCUUGCAGCAUAUGAGAAGGCACCUGGCUGCU [JL-ss2-3.01 Brourd Mod] (puzzle: Same State 2) :: 65.2 nM
8. GGAGCCGGCACCGAGGAUAUUCAUAUUAAAACAUGAGGAUCACCCAUGUACCGCAGAAGCGGUUGGGAGAAGGCGGAUCGGCUCG [Xeonanis - 23] (puzzle: Same State 2) :: 33 nM
9. ACAAGCUUUUCUGUAUUGAAAGGUGGGAUACAUGAGGAUCACCCAUGUUUUUUUGUUUAUAUUUGUCCUCGUCUUAU [JR_SHM208A_Sub087] (puzzle: Sensor for hsa-mir-208a) :: 52.7 nM
10. AGGCAAGCUUUUUGCUGGUAUGGAGGAUAACAUGAGGAUCACCCAUGUAUUGGAGGUGUUGAAGAUUUGAGAAAGAA [JR_SHM208A_Sub005] (puzzle: Sensor for hsa-mir-208a) :: 118 nM
11. UCUUAUAAUAAUAUAAUUCAUUUGAUAAAACAUGAGGAUCACCCAUGUCCUACUUUUUUUAAUCAUUUUAACUUUAA [The 7 c's] (puzzle: Sensor for hsa-mir-208a) :: 45.3 nM
12. GGUCCAGCCUGAGCUGGACAAAAGCAUGUACAUGAGGAUCACCCAUGUCAUGUACAAGCUUUUUGCUCGUCUAAAGA [Mat - hsa-mir-208a - 91] (puzzle: Sensor for hsa-mir-208a) :: 517 nM
13. UACAAUCUAUCUGAGGAUAUCAUGAAAAAAACAUGAGGAUCACCCAUGUGCAGGAAAACUGCAUAUGAGAAGGCAGAUAGAUUGG [salish99_SS2_r3_007] (puzzle: Same State 2) :: 14.3 nM
14. AACAAUCUAUCUGAGGAUAUCAUGAAAUAAACAUGAGGAUCACCCAUGUGCAGGAAAACUGCAUAUGAGAAGGCAGAUUGAUUGA [salish99_ss2_r3_054] (puzzle: Same State 2) :: 56 nM
15. AGUCCAGCCUGAGCUGGACAAAAGCAUGUACAUGAGGAUCACCCAUGUCGUGUACAAGCUUUUUGCUCGUCUUAAUA [Zipper 49 - 4] (puzzle: Sensor for hsa-mir-208a) :: 285 nM
16. AACAAUCUAUCUGAGGAUAUCAUGAAAUAAACAUGAGGAUCACCCAUGUUCAGGAAAACUGCAUAUGAGAAGGCAGAUAGAUUGA [salish99_ss2_r3_035] (puzzle: Same State 2) :: 10.4 nM
17. AACGUGGGAGCACAGGAUAUGCAUUGCUCCACAUGAGGAUCACCCAUGUAGGCAAAUAGGGAGCAGCAGAAGGGUGGUCCGACAC [Orraonrexe] (puzzle: Same State 2) :: 17.3 nM
18. AGGAAGGAGACUGAGGAUAUCGUAAGGAGGACAUGAGGAUCACCCAUGUGUAUAGGAUUGGAGGACGAGAAGGCAGAGGAGUGGG [JR_SS2_Sub048] (puzzle: Same State 2) :: 29.7 nM
19. GUAUAACAUGAGGAUCACCCAUGUCAUCUAAGUCGAGGAUAUGGGCAAAUAUAAUAAGAACCAGAAGGCGAAUAUG [Mat - Same State 1 - Mod of UCT - D34] (puzzle: Same State 1) :: 57.8 nM
20. CAAGCUUGGGUCGUCCCGCUCGUCUACAAACAUGAGGAUCACCCAUGUAUGCUCUUCGCAUCAAUUCUAUCUCUUGG [Quxeteor] (puzzle: Sensor for hsa-mir-208a) :: 51.5 nM
